- Test system: SK-MEL-28
- Protocol Text: NCI tumour cell line growth inhibition, 48 h
Activity calls are given as the source filed them. Cut-off read from the data, not from the text of the source: active = GI50 up to about 1.1 µM and inactive = higher.
In this exercise, the only acceptable responses are 1 = active, -1 = inactive

CCCC(=O)Nc1cc(/C=C/C(=O)N2CC(CCl)c3c2cc(OCc2ccccc2)c2[nH]cc(C)c32)n(C)c1 (stereo not drawn): 1

Exercise: Query: recorded result category for `Cc1sc2nc(N(C)C)oc(=O)c2c1C` in this test
Key: -1

Exercise: Can you handle `c1ccc2sc(C3(N4CCCC4)CCCCCC3)cc2c1` next?
Key: -1

Exercise: Can you handle `COc1ccc(/C=C2\C(=O)N(C(=O)Cc3ccccc3)N=C2C)cc1OC` next?
Key: -1

Exercise: Can you handle `Nc1nc(Cl)cc(NCCCCCCCCCCCCNc2cc(Cl)nc(N)n2)n1` next?
Key: -1

Exercise: Can you handle `CCOC(=O)/C(=C/c1cccc(Cl)c1)N(CC)CC` next?
Key: -1

---

- Test system: COLO 205
- Protocol Text: NCI tumour cell line growth inhibition, 48 h
Activity calls are given as the source filed them. Cut-off read from the data, not from the text of the source: active = GI50 up to about 1.1 µM and inactive = higher.
The compounds listed here are annotated with their GI50.

# count of solved cases: 2
CCOC(=O)/C([O-])=C(\C(=O)OCC)[n+]1c(C)n(C)c2ccccc21: > 100 µM (inactive)
OCc1ccc2c(c1)CC1(C2)Cc2cc3c(cc2C1O)CCC3 (stereo not given): 3.17 µM (inactive)

Exercise: Look up GI50 for this compound: CC(C)CCNC(=O)C(CC(C)C)NC(=O)[C@H]1O[C@@H]1C(=O)O (stereo not given in full)
Key: > 100 µM (inactive)

Exercise: Can you handle `Oc1ccc(Cn2c(-c3ccc(O)c(O)c3)nc3ccccc32)cc1O` next?
Key: 17.4 µM (inactive)

Exercise: Can you handle `CC(C)c1ccccc1NC(=O)C(=O)Cc1nc2ccccc2s1` next?
Key: > 100 µM (inactive)

Exercise: Can you handle `CN(C)c1ccc(/N=C2/NC(=N\c3ccccc3)/C(=N/c3ccccc3)S2)cc1` next?
Key: > 100 µM (inactive)

Exercise: Can you handle `Nc1nc(Cl)cc(NCCCCCCCCCCCCNc2cc(Cl)nc(N)n2)n1` next?
Key: 19.9 µM (inactive)

---

- System: SNB-19
- Protocol Text: NCI tumour cell line growth inhibition, 48 h
The source made the active and inactive calls. No stated cut-off is given here; in the data, active = GI50 up to about 1.1 µM and inactive = higher.
Measure: GI50

# count of solved cases: 5
Cc1cc(S(=O)(=O)N/C(=N/N)NCCc2ccccc2)c(S)cc1Cl: 18.1 µM (inactive)
CCOC(CNc1nn2c(C)nnc2s1)OCC: > 100 µM (inactive)
N#Cc1c(O)c(/N=N/c2ccccc2F)c(=O)n2c1[nH]c1ccccc12: 48.1 µM (inactive)
Cn1cco/c1=N/c1ccc(Cl)c(Cl)c1: > 10 µM (inactive)
CCC1CN2CCc3cc(OC)c(OC)cc3C2CC1CC1c2cc(OC)c(OC)cc2CCN1C(=O)CNC(=O)OC(C)(C)C (configuration not stated): 13.9 µM (inactive)

Exercise: Look up GI50 for this molecule: O=C1c2cccnc2C(=O)C2C3C=CC(C3)C12 (configuration not stated)
Key: 15 µM (inactive)

Exercise: Can you handle CCCCCN(CCCCC)CC(C)(C)C(O)c1ccc(OC)c2ccccc12 (configuration not stated) next?
Key: 10.7 µM (inactive)
